The reported measurements were obtained from ChEMBL document CHEMBL1201862.

tested on: SF-295; assay: NCI tumour cell line growth inhibition, 48 h
Calls of active or inactive are those of the source. No stated cut-off is given here; in the data, active = GI50 up to about 1.1 µM and inactive = higher.
test_readout: GI50

Entry C[C@@H]1OC(=O)/C(=C\N(C)C)[C@H]2CC(=O)N(CCc3cn(S(=O)(=O)C(F)(F)F)c4ccccc34)C[C@H]12 : reported GI50 = ? > 100 µM (inactive)

Entry Cc1cc2c(cc1Cl)SC(NNC(=O)c1ccco1)=NS2(=O)=O : reported GI50 = ? > 10 µM (inactive)

Entry O=C1N/C(=N/N=C\c2ccccc2)N/C1=C/c1ccc(Cl)cc1 : reported GI50 = ? 25.7 µM (inactive)

Entry COc1ccc2c(c1)CCC/C2=N\NS(=O)(=O)c1c(C)cc(C)cc1C : reported GI50 = ? 34.4 µM (inactive)

Entry O=C(c1cccs1)N(C(=S)N1CCN(c2ccccc2)CC1)C1CCCCC1 : reported GI50 = ? > 100 µM (inactive)

* * *

test system: NCI-H460; test: NCI tumour cell line growth inhibition, 48 h
Calls of active or inactive are those of the source. Cut-off read from the data, not from the text of the source: active = GI50 up to about 1.1 µM and inactive = higher.
Output constraint: value belongs to class 1 = active, class 0 = inactive

Given CC1=NN(c2nc(N)nc(C(C#N)C(=O)c3cc4c(cc3Cl)Sc3nccn3S4(=O)=O)n2)C(C)(C)C1 (stereo not given) , state the outcome it received in this test. class 0

Given Cc1ccc(/N=C2\OP(=O)(Nc3ccc(C)cc3)Oc3ccccc32)cc1 (stereo not given) , state the outcome it received in this test. class 0

Given COc1c(O)cc2c(c1O)C(=O)C1=C(CCCC1)C2=O , state the outcome it received in this test. class 0

Given Cc1cn(CC2=NC3CCCCC3N2)c(=O)[nH]c1=O (stereo not given) , state the outcome it received in this test. class 0

Given Cc1cccc(=O)c([O-])c1.Cc1cccc(=O)c([O-])c1.[Bi+3].[Cl-] , state the outcome it received in this test. class 0

Given CCOc1cc(/C=N\N(C)C)cc(/C=N\N(C)C)c1O , state the outcome it received in this test. class 0

Given O=C(Sc1c(-c2ccccc2)c(=O)n(-c2ccccc2)c(=S)n1-c1ccccc1)c1ccccc1 , state the outcome it received in this test. class 0

Given O=C1N/C(=N/N=C\c2ccccc2)N/C1=C/c1ccc(Cl)cc1 , state the outcome it received in this test. class 0

Given O=C(O)c1cccc(S(=O)(=O)NN2C(=O)CSC2c2c(O)ccc3ccccc23)c1 (stereo not given) , state the outcome it received in this test. class 0

Given NC1=Nc2cc(Cl)ccc2Sc2nc3ccccc3n21 , state the outcome it received in this test. class 0

Given SC[C@@H]1COC[C@H](CS)S1 , state the outcome it received in this test. class 0

Given C[C@@H]1OC(=O)/C(=C\N(C)C)[C@H]2CC(=O)N(CCc3cn(S(=O)(=O)C(F)(F)F)c4ccccc34)C[C@H]12 , state the outcome it received in this test. class 0

Given O=C(C(=O)n1ccc2ccccc21)c1c[nH]c2ccccc12 , state the outcome it received in this test. class 0

Given CCOC(=O)c1cc2c3c(cc(OC)c2[nH]1)N(C(=O)OCC)CC3 , state the outcome it received in this test. class 0

Given CC(C)(C)C1CCC2c3c([nH]c4ccccc34)C3C(=O)N(c4cc(Br)cc(Br)c4)C(=O)C3C2C1 (stereo not given) , state the outcome it received in this test. class 0

Given CN1CCOC(c2ccc(Cl)cc2)O1 (stereo not given) , state the outcome it received in this test. class 0

Given C[C@]12CCC(=O)C(OC(=O)c3ccc([N+](=O)[O-])cc3)=C1CCC2=O , state the outcome it received in this test. class 0

Given C[C@H]1C[C@H](C)c2ccccc2N(C)/C1=N\c1ccccc1 , state the outcome it received in this test. class 0

Given COc1ccc(OC(C)C(=O)O)c2c(=O)ccccc12 (stereo not given) , state the outcome it received in this test. class 0

Given CN(CCC#N)c1ccc(/C=C2\SC(=S)NC2=O)cc1 , state the outcome it received in this test. class 0

Given CC(=O)Nc1cccc(/N=N/N(C)C)c1 , state the outcome it received in this test. class 0

Given NNC(=O)CSc1nc2ccc(I)cc2c(=O)n1Cc1ccccc1 , state the outcome it received in this test. class 0

Given CC(N)Cc1ccc(C(=O)Cl)cc1 (stereo not given) , state the outcome it received in this test. class 0

Given N=C(CC/C(N)=N/O)NO , state the outcome it received in this test. class 0

Given O=c1c2c(nc3[nH]ccn13)CCC2 , state the outcome it received in this test. class 0

Given CNC1(c2cc3ccccc3s2)CCCCC1 , state the outcome it received in this test. class 0

Given C=CCOCn1cc(F)c(=O)[nH]c1=O , state the outcome it received in this test. class 0

Given Cc1ccc(S(=O)(=O)N/N=C2\C(=O)C3CC2C(Cl)C3Cl)cc1 (stereo not given) , state the outcome it received in this test. class 0

Given O=C(c1cccs1)N(C(=S)N1CCN(c2ccccc2)CC1)C1CCCCC1 , state the outcome it received in this test. class 0

Given CC(CO)(CO)Nc1ncnc2ccccc12 , state the outcome it received in this test. class 0

Given N#C/N=C(/N)c1sc2nc3c(c(-c4ccc(Br)cc4)c2c1N)CCCC3 , state the outcome it received in this test. class 0

Given Brc1cccc(Nc2nc(-c3cccs3)nc3ccc(Br)cc23)c1 , state the outcome it received in this test. class 0

Given COC1C(OC(=O)c2ccc(C)[nH]2)C(O)C(Oc2ccc3c(O)c(NC(=O)c4ccc(O)c(CC=C(C)C)c4)c(=O)oc3c2Cl)OC1(C)C (stereo not given) , state the outcome it received in this test. class 0

Given Cc1cc(S(=O)(=O)Nc2nnc3ccccn23)c(S)cc1Cl , state the outcome it received in this test. class 0

Given C(/C=N/c1ccccc1)=C(/Nc1ccccc1)c1ccc2ccccc2c1 , state the outcome it received in this test. class 0

Given CN(C)/C=N/c1ccc2nonc2c1 , state the outcome it received in this test. class 0

Given CC1CC(=O)Nc2ccccc2N1C(=O)CN1CCC(CCCCN(C)C)CC1 (stereo not given) , state the outcome it received in this test. class 0

Given Cc1ccc(C(=O)NC2C(=O)NC(C(C)C)C(=O)N3CCCC3C(=O)N(C)CC(=O)N(C)C(C(C)C)C(=O)OC2C)c2c1Oc1c(c(C(=O)NC3C(=O)NC(C(C)C)C(=O)N4CCCC4C(=O)N(C)CC(=O)N(C)C(C(C)C)C(=O)OC3C)c3nc(-c4ccccc4)c(=O)oc3c1C)N2 (stereo not given) , state the outcome it received in this test. class 1

Given CSCCC(NC(=O)C(Cc1ccccc1)NC(=O)CNC(=O)CNC(=O)C(N)Cc1ccc(O)cc1)C(=O)O (stereo not given) , state the outcome it received in this test. class 0

Given CC(C)C[C@H](NC(=O)[C@H](Cc1ccccc1)NC(=O)CCc1ccccc1)B(O)O , state the outcome it received in this test. class 1

* * *

Give measured GI50 for each item. Keep answers brief.
test system: NCI/ADR-RES; assay: NCI tumour cell line growth inhibition, 48 h
Calls of active or inactive are those of the source. No stated cut-off is given here; in the data, active = GI50 up to about 1.1 µM and inactive = higher.

Give the reported GI50 for Cc1cn2c(/C=C3/C(=O)Nc4cccc(Cl)c43)c(Cl)nc2s1 (system: NCI/ADR-RES). > 100 µM (inactive)

Give the reported GI50 for CCOC(=O)c1ccc(Nc2nc3ccc(C(F)(F)F)cc3nc2-c2ccccc2)cc1 (system: NCI/ADR-RES). > 100 µM (inactive)

Give the reported GI50 for CCOC(=O)/C=C/C1(CCOC(C)=O)CCCCC1 (system: NCI/ADR-RES). > 10 µM (inactive)

Give the reported GI50 for NC1=Nc2cc(Cl)ccc2Sc2nc3ccccc3n21 (system: NCI/ADR-RES). > 100 µM (inactive)

Give the reported GI50 for O=C1C=C(O)C(=O)c2c(O)ccc(O)c21 (system: NCI/ADR-RES). > 100 µM (inactive)

Give the reported GI50 for Cc1ccc(C2C(C(=O)C(C)(C)C)N2S(=O)(=O)c2ccc(C)cc2)cc1 (stereo unspecified) (system: NCI/ADR-RES). 23.4 µM (inactive)

Give the reported GI50 for CCn1c(SCc2nnc(Nc3ccccc3)s2)nc2ccccc2c1=O (system: NCI/ADR-RES). 2.59 µM (inactive)

Give the reported GI50 for C=C1CC[C@H]2C(=O)OC(c3ccoc3)C[C@]2(C)C/C=C\C=C/1C(=O)OC (stereo partly specified) (system: NCI/ADR-RES). 13.2 µM (inactive)

Give the reported GI50 for [N-]=[N+]=Nc1ccc2c(c1)Sc1ccccc1N2CCCCN1CCN(Cc2ccc(C(=O)c3ccccc3)cc2)CC1 (system: NCI/ADR-RES). 3.68 µM (inactive)

Give the reported GI50 for CCOC(NC(=O)CC)(C(F)(F)F)C(F)(F)F (system: NCI/ADR-RES). > 100 µM (inactive)

Give the reported GI50 for CN1CCOC(c2ccc(Cl)cc2)O1 (stereo unspecified) (system: NCI/ADR-RES). > 100 µM (inactive)
